All values here come from patent US20250197396A1.

# Test target: IP6K1 (Homo sapiens (Human))
# Assay: IP6K1 IC50 of compounds of Formula (IA) and Formula (IB)
# Format: biochemical
Measured metric: IP6K1 IC50

Examples with their reported IP6K1 IC50 follow.
O=C(O)c1ccc2[nH]c(=O)n([C@H]3CCN(Cc4ccc(Cl)cc4Cl)C3)c2c1 [Cmpd 13b]    + +
O=C(O)c1ccc2[nH]c(=O)n(C3CCN(C(=O)c4ccc(Cl)cc4Cl)CC3)c2c1    + + +
O=C(O)c1ccc2c(c1)[nH]c(=O)n2C1CCN(C(=O)c2ccc(Cl)cc2Cl)CC1 [Cmpd 16b]    + +
O=C(O)c1ccc2[nH]c(=O)n(C3CCN(C(=O)c4ccccc4Cl)CC3)c2c1    + +
O=C(O)c1ccc2[nH]c(=O)n([C@H]3CCN(C(=O)c4ccc(Cl)cc4Cl)C3)c2c1 [Cmpd 12b]    + +

Give recorded IP6K1 IC50. O=C(O)c1ccc2c(c1)C1(CCN(C(=O)c3ncc(Cl)cc3Cl)CC1)C(=O)N2
+ + +

Give recorded IP6K1 IC50. O=C(O)c1ccc2c(c1)C1(CCN(C(=O)Cc3ccc(Cl)cc3)CC1)C(=O)N2
+ +

Give recorded IP6K1 IC50. O=C(O)c1ccc2c(c1)C1(CCN(C(=O)c3ccc(Cl)cc3Cl)CC1)C(=O)N2 [Cmpd 17a]
+ + +

###

# Test target: IP6K1 (Homo sapiens (Human), UniProt Q92551)
# Sequence (Q92551 whole entry, species assumed): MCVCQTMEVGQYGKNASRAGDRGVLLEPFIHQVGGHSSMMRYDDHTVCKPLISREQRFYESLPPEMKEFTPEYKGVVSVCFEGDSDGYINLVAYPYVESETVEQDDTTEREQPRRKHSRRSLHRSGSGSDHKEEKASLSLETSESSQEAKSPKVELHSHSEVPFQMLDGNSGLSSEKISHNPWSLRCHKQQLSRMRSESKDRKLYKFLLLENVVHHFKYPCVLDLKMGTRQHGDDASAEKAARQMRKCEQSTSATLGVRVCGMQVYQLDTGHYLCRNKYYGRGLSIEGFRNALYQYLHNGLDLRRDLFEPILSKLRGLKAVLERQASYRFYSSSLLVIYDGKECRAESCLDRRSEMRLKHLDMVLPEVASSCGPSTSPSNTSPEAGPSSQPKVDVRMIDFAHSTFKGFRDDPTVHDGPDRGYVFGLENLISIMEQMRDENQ
# Assay: IP6K1 IC50 of compounds of Formula (IA) and Formula (IB)
# Format: biochemical
Measured metric: IP6K1 IC50

Examples with their reported IP6K1 IC50 follow.
O=C(O)c1ccc2c(c1)C1(CCN(C(=O)Nc3ccc(Cl)cc3)CC1)C(=O)N2    + + +
O=C(O)c1ccc2c(c1)C1(CCN(Cc3ccccc3Cl)CC1)C(=O)N2 [Cmpd 15a]    + +
O=C(O)c1ccc2[nH]c(=O)n([C@@H]3CCN(C(=O)c4ccc(Cl)cc4Cl)C3)c2c1 [Cmpd 14b]    + +
O=C(O)c1ccc2[nH]c(=O)n(C3CN(C(=O)c4ccc(Cl)cc4Cl)C3)c2c1 [Cmpd 10b]    + +
O=C(O)c1ccc2[nH]c(=O)n(CCOc3ccc(Cl)cc3)c2c1    + +

Next up:
Give recorded IP6K1 IC50. O=C(O)c1ccc2c(c1)C1(CCN(C(=O)COc3ccc(Cl)cc3)CC1)C(=O)N2
+ +

###

# Test target: IP6K1 (Homo sapiens (Human))
# Assay: IP6K1 IC50 of compounds of Formula (IA) and Formula (IB)
# Assay type: biochemical
Measured metric: IP6K1 IC50

O=C(O)c1ccc2[nH]c(=O)n([C@@H]3CCN(Cc4ccc(Cl)cc4Cl)C3)c2c1 [Cmpd 15b]    + +
O=C(O)c1ccc2[nH]c(=O)n(CC3CCN(C(=O)c4ccc(Cl)cc4Cl)C3)c2c1 (stereo not shown) [Cmpd 19b]    + +
O=C(O)c1ccc2[nH]c(=O)n([C@H]3CC[C@H](Oc4ncc(Cl)cc4Cl)CC3)c2c1 [Cmpd 5b]    + + +
O=C(O)c1ccc2c(c1)C1(CCN(S(=O)(=O)c3ccc(Cl)cc3)CC1)C(=O)N2 [Cmpd 1a]    + +

###

# Test target: IP6K1 (Homo sapiens (Human), UniProt Q92551)
# Assay: IP6K1 IC50 of compounds of Formula (IA) and Formula (IB)
# Assay type: biochemical
Measured metric: IP6K1 IC50

O=C(O)c1ccc2[nH]c(=O)n([C@H]3CC[C@@H](Oc4ncc(Cl)cc4Cl)CC3)c2c1    + + +
O=C(O)c1ccc2[nH]c(=O)n(CCCOc3ncc(Cl)cc3Cl)c2c1    + + +
O=C(O)c1ccc2c(c1)C1(CCN(C(=O)c3ccccc3Cl)CC1)C(=O)N2 [Cmpd 14a]    + +
O=C(O)c1ccc2c(c1)C1(CCN(C(=O)c3ccc(C(F)(F)F)cc3)CC1)C(=O)N2    + + +

###

# Test target: UniProtKB Q92551
# Assay: IP6K1 IC50 of compounds of Formula (IA) and Formula (IB)
# Format: biochemical
Measured metric: IP6K1 IC50

O=C(O)c1cc2c(cc1F)[nH]c(=O)n2[C@H]1CC[C@H](Oc2ncc(Cl)cc2Cl)CC1    + + +
O=C(O)c1ccc2c(c1)C1(CCN(C(=O)c3ccc(Cl)cc3)CC1)C(=O)N2    + + +
O=C(O)c1ccc2c(c1)C1(CCN(Cc3ccc(Cl)cc3)CC1)C(=O)N2    + +
O=C(O)c1ccc2[nH]c(=O)n(C3CN(Cc4ccc(Cl)cc4Cl)C3)c2c1 [Cmpd 11b]    + +
